Experiment: Plasma pharmacokinetics in rats following a 2 mg/kg intravenous bolus injection
Assay type: in vivo, male Sprague-Dawley rats
Details: rat, plasma, iv, 216 hours, 2 mg/kg i.v. bolus, Mean ± SD (N = 3), ND = Not Detected (lower limit of detection 2 ng/mL)
Description: The pharmacokinetic properties of A(±) of Example 1 were compared with those of each enantiomer, A(+) and A(-) of Example 1. The comparison was made in rats following an intravenous bolus injection. The test articles were formulated in a 0.1N sodium carbonate solution to yield a 2 mg/mL solution. […] Plasma concentrations of each drug were determined by gas chromatographic-electron capture (GC-EC) methods known to those skilled in the art, with a lower limit of detection of 2 ng/mL. […]
quantity measured: concentration at 216 h (ng/mL)

In [3]: df
Out[3]:
                                   molecule       quantity_measured  readout_units  endpoint_result
0  COc1cc(F)cc2c1-c1ccc(F)cc1[C@@]21NC(=O)NC1=O [A(+)]  concentration at 216 h          ng/mL                2
1  COc1cc(F)cc2c1-c1ccc(F)cc1C21NC(=O)NC1=O (racemic) [A(±)]  concentration at 216 h          ng/mL                2
